Origin of the recorded values: ChEMBL document CHEMBL1201862

# Tested on: EKVX
# Test method notes: NCI tumour cell line growth inhibition, 48 h
Activity calls are given as the source filed them. Cut-off read from the data, not from the text of the source: active = GI50 up to about 1.1 µM and inactive = higher.
Known GI50 of a selection of compounds

| Compound | Target or test system | GI50 |
| --- | --- | --- |
| CCOC(=O)c1c(O)nc(O)c(CC)c1C | EKVX | > 100 µM (inactive) |
| CCOC1OCCCC1Br (stereo unspecified) | EKVX | > 100 µM (inactive) |
| N#C/C(=C\c1ccccc1)c1nc(-c2cc3ccccc3oc2=O)cs1 | EKVX | 71.3 µM (inactive) |
| CC(C)N(C(=O)C12C3C4C5C3C1(C(=O)N(C(C)C)C(C)C)C5(C#N)C42)C(C)C (stereo unspecified) | EKVX | > 100 µM (inactive) |
| Cc1ccc(/C=N/C23CC4CC(CC(C4)C2)C3)cc1 | EKVX | > 100 µM (inactive) |
| COC[C@@H](Cc1ccc(OC)c(OC)c1)[C@@H](COC)Cc1ccc(OC)c(OC)c1 | EKVX | > 100 µM (inactive) |
| CCCSc1cc(Cl)c(C)cc1S(=O)(=O)n1ccnc1O | EKVX | > 100 µM (inactive) |
| OC1CC(O)c2c(Cl)sc(Cl)c21 (stereo unspecified) | EKVX | 5.21 µM (inactive) |
| [N-]=[N+]=CC(=O)OCC1SCCCS1 | EKVX | > 100 µM (inactive) |
| Cn1c2ccccc2c2c3c(c4c5ccccc5n(C5OC(CO)C(O)C(O)C5O)c4c21)C(=O)OC3=O (stereo unspecified) | EKVX | > 100 µM (inactive) |
| COc1cc(C(C)(C)C)c(OC(=O)/C=C/C(=O)O/C=C/[N+](=O)[O-])c(C(C)(C)C)c1 | EKVX | 69 µM (inactive) |

---

# System: DMS-114
# Test method notes: NCI tumour cell line growth inhibition, 48 h
Active and inactive are the calls of the source. Rule as the data show it: active = GI50 up to about 1.1 µM and inactive = higher.
Known GI50 of a selection of molecules
Experimental endpoint: GI50

| Molecule | Result |
| --- | --- |
| NCC1(N2CCOCC2)C2CCCC21CO (stereo unspecified) | > 100 µM (inactive) |
| C/N=C(\N)c1ccc(NC(=N)c2ccc(C(=N)Nc3ccc(/C(N)=N/C)cc3)cc2)cc1 | > 100 µM (inactive) |
| NCCn1cnc2nc(NC(=O)c3ccccc3)[nH]c(=O)c21 | > 100 µM (inactive) |
| CCCCC(N)CSSCC(N)CCCC (stereo unspecified) | 17.7 µM (inactive) |
| N#C/C(=C\c1c(Cl)cccc1Cl)c1ccccc1 | 12.4 µM (inactive) |
| O=C(O)CCC1(Br)CCCCC(Br)C1=O (stereo unspecified) | > 100 µM (inactive) |

---

# Tested on: SF-295
# Test method notes: NCI tumour cell line growth inhibition, 48 h
The source made the active and inactive calls. Rule as the data show it: active = GI50 up to about 1.1 µM and inactive = higher.
Classes used: active, inactive

| Compound | Label class |
| --- | --- |
| CC/C=C/c1cc2c(cc1O)CCC1C2CC[C@@]2(C)C1CC[C@@H]2O (stereo partly specified) | active |
| COc1ccc(CC2C3=C(CCN2C(=O)C2CCC2)CC2(CC3)OCCO2)cc1O (stereo unspecified) | inactive |
| NC(=S)N/N=C1/CCCC2CCCC[C@@H]12 (stereo partly specified) | inactive |
| COc1cc(C(Cc2ccccc2)NC(C)=O)oc(=O)c1 (stereo unspecified) | inactive |
| Nc1nc(Nc2cc(F)c(Cl)c(F)c2)cc(=O)[nH]1 | inactive |
| C=C1C(=O)O[C@@H]2[C@H]3O[C@]3(C)CCC=C(C)CC[C@@H]12 | inactive |
